# Tested on: SNB-19 CNS
# assay_overview: NCI tumour cell line growth inhibition, 48 h
property_measured: GI50

COc1ccc(/C(COc2ccc3oc(-c4ccccc4)cc(=O)c3c2)=N\O)cc1 :: 8.57 µM

Go through the items and report each one's GI50.
1. CC1=C2[C@@H](CC1)[C@]1(C)O[C@@](C(C)C)(C[C@H]1OC(=O)CO)[C@H]2OC(=O)C1CC1c1ccccc1 (stereo not given in full)
2. O=C(N/N=C\c1ccc(N(CCCl)CCCl)cc1[N+](=O)[O-])c1cccnc1
3. COC(=O)[C@H](Cc1cnc[nH]1)NC(=O)[C@@H](NC(=O)Nc1cc(C(F)(F)F)cc(C(F)(F)F)c1)C(C)C
4. COc1ccc(C/C(=C(\C)c2ccc(OCCN3CCCC3)cc2)c2ccc(OCCN3CCCC3)cc2)cc1
5. CC(C)(C)c1ccc(Oc2ccc(N)cn2)cc1
6. Cc1csc2[n+]1-c1ccccc1N(C(=O)Nc1ccccc1)C(C)C2 (stereo not given)
7. COC12C=C/C(=C(/C(=O)OCc3ccccn3)C(=O)CCCCCCCCC3(OC)C=C/C(=C(/C(=O)OCc4ccccn4)C(=O)CCCCCCCC1)O3)O2

16.7 µM
> 100 µM
10.9 µM
2.12 µM
> 100 µM
> 100 µM
1.43 µM

Go through the items and report each one's GI50.
1. CCCCCCCCCCCCCC[N+](C)(C)CCCCCCCCCCCCCC
2. O=C([CH-]C(=O)c1ccccc1)c1ccccc1.[CH-]1CCCCC1.[CH-]1CCCCC1.[CH-]1CCCCC1.[Sn+4]

1: 2.38 µM; 2: 5.43 µM
